# Tested on: CH58TF infected primary CD4+ T-cells
# Test Name: HIV+ patient sera/plasma recognition of CH58TF infected primary CD4+ T-cells (flow cytometry cell-surface staining)
# Type: cell-based, HIV-1
# Details: Human immunodeficiency virus 1, T-cell, read-out: Fold Over DMSO (patient sera, n = 3)
# fold induction at 50 µM values compiled below

Molecule	fold induction at 50 µM
Cn1cnc(S(=O)(=O)N2CCN(C(=O)OC(C)(C)C)C(C(=O)Nc3ccc(Cl)c(F)c3)C2)c1 (centres unmarked) [MCG-III-212-A04]	0.924
Cn1cnc(S(=O)(=O)N2CCOC(C(=O)Nc3ccc(Cl)c(F)c3)C2)c1 (centres unmarked) [MCG-III-211-A04]	1.63
CS(=O)(=O)N1CCC[C@H](C(=O)Nc2ccc(F)cc2F)C1 [(S)-MCG-III-027-D04]	1.24
CCS(=O)(=O)N1CCOC(C(=O)Nc2ccc(Cl)c(F)c2)C1 (centres unmarked) [MCG-III-211-A02]	1.81
CCS(=O)(=O)N1CCC[C@H](C(=O)Nc2ccc(F)c(F)c2)C1 [(S)-MCG-III-085-C04]	1.68
O=C(Nc1ccc(Cl)c(F)c1)[C@H]1CCCN(C(=O)Oc2ccccc2)C1 [(S)-MCG-III-188-A03]	4.61
Cn1cnc(S(=O)(=O)N2CCC[C@H](C(=O)Nc3ccc(Cl)c(F)c3)C2)c1 [(S)-MCG-III-116-A02]	1.97
COC(=O)N1CCC[C@H](C(=O)Nc2ccc(Cl)c(F)c2)C1 [(S)-MCG-III-188-A01]	2.69

###

# System: CH58TF infected primary CD4+ T-cells
# Test Name: HIV+ patient sera/plasma recognition of CH58TF infected primary CD4+ T-cells (flow cytometry cell-surface staining)
# Type: cell-based, HIV-1
# Details: Human immunodeficiency virus 1, T-cell, read-out: Fold Over DMSO (patient sera, n = 3)
Each entry gets not fulfilled if its fold induction at 50 µM stays under 3, and fulfilled if its fold induction at 50 µM is 3 or above.

Compound	Group Label
CCOC(=O)N1CCC[C@H](C(=O)Nc2ccc(Cl)c(F)c2)C1 [(S)-MCG-III-188-A02]	fulfilled
CS(=O)(=O)N1CCC[C@H](C(=O)Nc2ccc(C(F)(F)F)cc2)C1 [(S)-MCG-III-027-A04]	not fulfilled
O=C(Nc1ccc(Cl)c(F)c1)[C@H]1CCCN(S(=O)(=O)c2cccnc2)C1 [(S)-MCG-III-116-A01]	not fulfilled
O=C(Nc1ccc(Cl)c(F)c1)[C@H]1CCCN(S(=O)(=O)c2ccccc2)C1 [(S)-MCG-III-085-D01]	fulfilled
O=C(Nc1ccc(Cl)c(F)c1)C1CCCN(S(=O)(=O)c2ccccc2)C1 (centres unmarked) [MCG-III-157-B03]	fulfilled
CC(C)(C)OC(=O)N1CCN(S(=O)(=O)c2ccccc2)CC1C(=O)Nc1ccc(Cl)c(F)c1 (centres unmarked) [MCG-III-212-A03]	not fulfilled
CS(=O)(=O)N1CCC[C@H](C(=O)Nc2ccc(F)c(Cl)c2)C1 [(S)-MCG-III-085-A02]	not fulfilled
CCS(=O)(=O)N1CC(C(=O)Nc2ccc(Cl)c(F)c2)Cc2ccccc21 (centres unmarked) [MCG-III-214-A02]	fulfilled

###

# Tested on: primary CD4+ T cells infected with CH58 TF
# Test Name: FACS-based ADCC assay with patient sera/plasma
# Type: cell-based, HIV-1
# Details: Human immunodeficiency virus 1, CD4+ T, read-out: Fold over DMSO (% ADCC with ps, n = 3)

Molecule	fold induction at 50 µM
CS(=O)(=O)N1CCC[C@H](C(=O)Nc2cccc(Br)c2)C1 [(S)-MCG-III-027-B02]	0.74
CS(=O)(=O)N1CCC[C@H](C(=O)Nc2ccc(F)cc2F)C1 [(S)-MCG-III-027-D04]	1.37
CS(=O)(=O)N1CCC[C@H](C(=O)Nc2ccc(F)cc2)C1 [(S)-MCG-III-027-A03]	0.969
O=C(Nc1ccc(Cl)c(F)c1)C1CCCOC1 (stereo not drawn)	1.59
CCOC(=O)N1CCC[C@H](C(=O)Nc2ccc(Cl)c(F)c2)C1 [(S)-MCG-III-188-A02]	0.867
COc1cccc(NC(=O)[C@H]2CCCN(S(C)(=O)=O)C2)c1 [(S)-MCG-III-027-B05]	0.361
Cn1cnc(S(=O)(=O)N2CCC[C@H](C(=O)Nc3ccc(Cl)c(F)c3)C2)c1 [(S)-MCG-III-116-A02]	1.86
CS(=O)(=O)N1CCC[C@H](C(=O)Nc2ccccc2Cl)C1 [(S)-MCG-III-027-C01]	0.722
COC(=O)N1CCC[C@H](C(=O)Nc2ccc(Cl)c(F)c2)C1 [(S)-MCG-III-188-A01]	2.27
CS(=O)(=O)N1CCC[C@H](C(=O)Nc2cccc(F)c2)C1 [(S)-MCG-III-027-B03]	1.17
CS(=O)(=O)N1CCC[C@H](C(=O)Nc2ccc(Cl)c(F)c2)C1 [(S)-MCG-III-027-D05]	1.01
Cn1cnc(S(=O)(=O)N2CCCC(C(=O)Nc3ccc(Cl)c(F)c3)C2)c1 (stereo not drawn)	1.73
CS(=O)(=O)N1CCC[C@H](C(=O)Nc2ccc(Br)cc2)C1 [(S)-MCG-III-027-A02]	0.291
O=C(Nc1ccc(Cl)c(F)c1)C1CCCN(S(=O)(=O)c2ccccc2)C1 (stereo not drawn)	1.94
CS(=O)(=O)N1CCC[C@H](C(=O)Nc2cccc(Cl)c2)C1 [(S)-MCG-III-027-B01]	0.87
CCS(=O)(=O)N1CCC[C@H](C(=O)Nc2ccc(Cl)c(F)c2)C1 [(S)-MCG-III-085-C01]	0.487
CS(=O)(=O)N1CCC[C@H](C(=O)Nc2cccc(C(F)(F)F)c2)C1 [(S)-MCG-III-027-B04]	0.129
COc1ccccc1NC(=O)[C@H]1CCCN(S(C)(=O)=O)C1 [(S)-MCG-III-027-C05]	0.46

###

# Test Name: Solubility in PBS
# Type: physicochemical
# Details: Yes/NO

Compound	Solubility (in PBS)
CCS(=O)(=O)N1CC(C(=O)Nc2ccc(Cl)c(F)c2)Cc2ccccc21 (stereo not shown)	Yes**
CCS(=O)(=O)N1CCC[C@H](C(=O)Nc2ccc(Cl)c(Br)c2)C1 [(S)-MCG-III-085-C05]	Yes
CS(=O)(=O)N1CCC[C@H](C(=O)Nc2cccc(F)c2)C1 [(S)-MCG-III-027-B03]	Yes
Cn1cnc(S(=O)(=O)N2CCCC(C(=O)Nc3ccc(Cl)c(F)c3)C2)c1 (stereo not shown)	Yes

###

# Test system: CH58TF infected primary CD4+ T-cells
# Test Name: Recognition of HIV-1 infected cells by 17b (flow cytometry cell-surface staining)
# Assay type: cell-based
# Details: Human immunodeficiency virus 1, T-cell, read-out: Fold Over DMSO (17b, n = 1)
Simple rule here: fold induction at 50 µM less than 2 is TRUE, otherwise FALSE.

Compound	Group Label
CS(=O)(=O)N1CCC[C@H](C(=O)Nc2ccc(Br)c(Cl)c2)C1 [(S)-MCG-III-085-A06]	FALSE
COc1ccccc1NC(=O)[C@H]1CCCN(S(C)(=O)=O)C1 [(S)-MCG-III-027-C05]	TRUE
Cn1cnc(S(=O)(=O)N2CCC[C@H](C(=O)Oc3ccc(Cl)c(F)c3)C2)c1 [(S)-MCG-III-213-A04]	TRUE
O=C(Nc1ccc(F)c(F)c1)[C@H]1CCCN(S(=O)(=O)c2ccccc2)C1 [(S)-MCG-III-085-D04]	FALSE
CS(=O)(=O)N1CCC[C@H](C(=O)Nc2ccc(Cl)c(F)c2)C1 [(S)-MCG-III-027-D05]	FALSE

###

# Test system: CH58TF infected primary CD4+ T-cells
# Test Name: Recognition of HIV-1 infected cells by 17b (flow cytometry cell-surface staining)
# Assay type: cell-based
# Details: Human immunodeficiency virus 1, T-cell, read-out: Fold Over DMSO (17b, n = 1)

Molecule	fold induction at 50 µM
O=C(Nc1ccc(Cl)c(F)c1)[C@H]1CCCN(C(=O)Oc2ccccc2)C1 [(S)-MCG-III-188-A03]	3.11
CC(C)(C)OC(=O)N1CCN(S(=O)(=O)c2ccccc2)CC1C(=O)Nc1ccc(Cl)c(F)c1 (stereo not drawn)	1.1
CS(=O)(=O)N1CCC[C@H](C(=O)Nc2ccc(Cl)c(Cl)c2)C1 [(S)-MCG-III-085-A03]	3.34
O=C(Nc1ccc(Br)c(Cl)c1)[C@H]1CCCN(S(=O)(=O)c2ccccc2)C1 [(S)-MCG-III-085-D06]	6.46
CS(=O)(=O)N1CCC[C@H](C(=O)Nc2ccccc2Cl)C1 [(S)-MCG-III-027-C01]	1.14
CS(=O)(=O)N1CCC[C@H](C(=O)Nc2ccc(Cl)c(Br)c2)C1 [(S)-MCG-III-085-A05]	2.15
CCS(=O)(=O)N1CCC[C@H](C(=O)Nc2ccc(F)c(F)c2)C1 [(S)-MCG-III-085-C04]	3.95
CCS(=O)(=O)N1CCOC(C(=O)Nc2ccc(Cl)c(F)c2)C1 (stereo not drawn)	3.64
CCS(=O)(=O)N1CCC[C@H](C(=O)Nc2ccc(F)c(Cl)c2)C1 [(S)-MCG-III-085-C02]	2.15
O=C(Nc1ccc(Cl)c(F)c1)C1CNCCN1 (stereo not drawn)	1.73
CCN1CC(C(=O)Nc2ccc(Cl)c(F)c2)Cc2ccccc21 (stereo not drawn)	1.39
CS(=O)(=O)N1CCC[C@H](C(=O)Nc2ccc(Br)cc2)C1 [(S)-MCG-III-027-A02]	1.65
CS(=O)(=O)N1CCC[C@H](C(=O)Nc2ccc(F)cc2)C1 [(S)-MCG-III-027-A03]	1.12
Cn1cnc(S(=O)(=O)N2CCN(C(=O)OC(C)(C)C)C(C(=O)Nc3ccc(Cl)c(F)c3)C2)c1 (stereo not drawn)	1.04
CC(C)(C)OC(=O)N1CCN(S(C)(=O)=O)CC1C(=O)Nc1ccc(Cl)c(F)c1 (stereo not drawn)	0.968
